- target_or_test_system: Fuc(a1-2)Gal(b1-3)GalNAc(a1-3)[Fuc(a1-2)]Gal(b1-4)Glc
- assay_procedure: glycan array binding signal (z-score within array); higher = stronger binding
- applied_conditions: glycan notation: IUPAC condensed, linker removed
The full list was thinned out, with the strongest signals kept by preference.
quantity_measured: glycan array binding signal (z-score)
Could you respond with only the numeric value?

A selection of reference data follows.
# binder, glycan array binding signal (z-score)
records = [
    ("AFL6 (Aspergillus fumigatus), Q4WKJ1 (protein) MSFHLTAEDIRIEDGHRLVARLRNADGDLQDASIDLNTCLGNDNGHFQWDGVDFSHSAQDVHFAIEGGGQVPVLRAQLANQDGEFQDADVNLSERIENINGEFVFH", -0.421),
    ("AidA (Burkholderia cenocepacia) (protein) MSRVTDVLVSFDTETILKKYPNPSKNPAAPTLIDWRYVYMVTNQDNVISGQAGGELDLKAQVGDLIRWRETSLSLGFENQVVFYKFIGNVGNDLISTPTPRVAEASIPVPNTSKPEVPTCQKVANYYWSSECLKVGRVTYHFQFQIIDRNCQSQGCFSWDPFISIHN", -0.374),
    ("FliC (Clostridium difficile) (protein) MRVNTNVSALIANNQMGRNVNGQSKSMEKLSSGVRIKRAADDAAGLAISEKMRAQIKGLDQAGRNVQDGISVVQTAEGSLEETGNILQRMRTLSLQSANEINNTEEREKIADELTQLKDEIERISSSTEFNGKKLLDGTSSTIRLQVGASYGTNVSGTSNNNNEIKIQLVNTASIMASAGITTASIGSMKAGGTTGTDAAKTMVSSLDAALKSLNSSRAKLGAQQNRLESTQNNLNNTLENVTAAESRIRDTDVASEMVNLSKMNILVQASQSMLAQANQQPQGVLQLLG", 0.883),
    ("CFEM-CGl (Candida glabrata), Q6FRS0 (protein) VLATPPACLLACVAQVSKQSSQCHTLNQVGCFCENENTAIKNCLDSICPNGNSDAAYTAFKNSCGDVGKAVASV", -0.334),
    ("Ecp6 (Cladosporium fulvum), B3VBK9 (protein) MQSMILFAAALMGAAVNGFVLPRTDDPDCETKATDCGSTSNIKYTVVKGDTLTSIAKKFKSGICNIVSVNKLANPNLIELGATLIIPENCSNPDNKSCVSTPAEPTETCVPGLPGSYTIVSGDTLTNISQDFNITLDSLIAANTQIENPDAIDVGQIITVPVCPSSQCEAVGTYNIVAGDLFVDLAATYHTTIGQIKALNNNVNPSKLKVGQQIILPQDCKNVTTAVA", -0.099),
]

Report measured glycan array binding signal (z-score); entry is Wzz (Escherichia coli) (protein) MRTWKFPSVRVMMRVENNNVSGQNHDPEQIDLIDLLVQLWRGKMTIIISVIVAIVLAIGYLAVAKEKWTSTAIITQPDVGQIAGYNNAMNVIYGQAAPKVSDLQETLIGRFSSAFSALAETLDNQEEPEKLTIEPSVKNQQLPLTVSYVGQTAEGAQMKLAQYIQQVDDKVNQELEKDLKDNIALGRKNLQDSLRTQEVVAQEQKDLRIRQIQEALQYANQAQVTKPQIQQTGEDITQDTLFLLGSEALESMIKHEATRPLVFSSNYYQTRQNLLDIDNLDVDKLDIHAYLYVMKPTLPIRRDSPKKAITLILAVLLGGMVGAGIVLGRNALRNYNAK
0.119

Report measured glycan array binding signal (z-score); entry is Apa (Mycobacterium tuberculosis), Rv1860 (protein) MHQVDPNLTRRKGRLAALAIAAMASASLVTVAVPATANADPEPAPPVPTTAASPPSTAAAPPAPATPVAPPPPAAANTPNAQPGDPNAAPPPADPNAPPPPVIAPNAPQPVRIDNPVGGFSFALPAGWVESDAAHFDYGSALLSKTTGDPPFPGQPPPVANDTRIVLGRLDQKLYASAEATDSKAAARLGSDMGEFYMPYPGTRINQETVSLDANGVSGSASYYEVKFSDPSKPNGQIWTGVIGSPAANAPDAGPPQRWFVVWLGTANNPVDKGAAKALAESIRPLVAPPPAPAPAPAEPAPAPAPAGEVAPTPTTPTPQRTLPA
2.08
